# TESTED SYSTEM: UniProt O95251
# Sequence (O95251 other isoform, or with tags, fused parts or gaps): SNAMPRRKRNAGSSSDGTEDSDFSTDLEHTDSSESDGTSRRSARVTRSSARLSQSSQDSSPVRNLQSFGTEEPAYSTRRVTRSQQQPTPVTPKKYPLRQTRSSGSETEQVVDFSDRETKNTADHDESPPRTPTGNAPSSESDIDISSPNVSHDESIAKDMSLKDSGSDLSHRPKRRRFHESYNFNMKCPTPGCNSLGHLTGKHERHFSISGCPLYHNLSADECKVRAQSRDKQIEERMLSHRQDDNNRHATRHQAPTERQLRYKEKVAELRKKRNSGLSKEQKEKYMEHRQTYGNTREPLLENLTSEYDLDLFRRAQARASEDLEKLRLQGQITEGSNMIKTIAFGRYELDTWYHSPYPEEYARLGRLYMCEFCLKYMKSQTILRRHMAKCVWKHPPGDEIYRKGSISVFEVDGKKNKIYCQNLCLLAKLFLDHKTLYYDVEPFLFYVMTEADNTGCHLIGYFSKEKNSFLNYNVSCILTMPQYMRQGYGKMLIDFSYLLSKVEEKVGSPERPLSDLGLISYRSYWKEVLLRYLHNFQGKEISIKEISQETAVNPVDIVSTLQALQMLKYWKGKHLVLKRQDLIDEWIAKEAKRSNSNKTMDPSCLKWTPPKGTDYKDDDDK
# EXPERIMENTAL PROTOCOL: KAT-7 biochemical inhibition assay (SAMDI mass spectrometry)
pIC50: −log10 of the molar value.
Measured pIC50, listed per entry.

Sample answers from the record:
### Prompt Look up pIC50 for this compound: COCCn1cnc(-c2cc(C)c(F)c(C(=O)NNS(=O)(=O)CC3CCCN(C(=O)OC(C)(C)C)C3)c2)c1 (stereo not drawn) [Compound I-135]
### Response 4.30 to 5.00

### Prompt Fill in: pIC50 of CN(CC(F)(F)F)C1CCCC(CS(=O)(=O)NNC(=O)c2cc(-c3cn(C)cn3)cc(Cl)c2F)C1 (stereo not drawn) [Compound I-473] is ___
### Response > 5.00

### Prompt Dear colleague, I am looking for the recorded pIC50 of the following compound: Cn1cnc(-c2cc(Cl)c(F)c(C(=O)NNS(=O)(=O)Cc3cccnc3)c2)c1 [Compound I-282]
### Response > 5.00

### Prompt Fill in: pIC50 of O=C(NNS(=O)(=O)CC1CCCCC1)c1cc(-n2ccnc2)cc(Cl)c1F [Compound I-44] is ___
### Response < 4.00

### Prompt # lookup: pIC50 of CN1CCN([C@H]2CC[C@@H](CS(=O)(=O)NNC(=O)c3cc(-c4cn(C)cn4)cc(Cl)c3F)CC2)C1=O [Compound I-310]
### Response > 5.00

Next:
### Prompt Query: pIC50; subject: COCCn1cnc(-c2cc(C)c(F)c(C(=O)NNS(=O)(=O)CC3CCCNC3)c2)c1 (stereo not drawn) [Compound I-136]
### Response < 4.00

### Prompt Would you mind telling me what pIC50 value was observed for Cc1nc(-c2cc(Cl)c(F)c(C(=O)NNS(=O)(=O)CC3CCOCC3)c2)cn1C [Compound I-33] ?
### Response > 5.00

### Prompt Can you look up the measured pIC50 of Cc1cc(-c2cncn2C)cc(C(=O)NNS(=O)(=O)C2CCCCC2)c1F [Compound I-153] for me?
### Response < 4.00

### Prompt Item CCOc1ccc(S(=O)(=O)NNC(=O)c2cc(-c3cn(C)cn3)cc(Cl)c2F)cc1 [Compound I-380] has what recorded pIC50?
### Response > 5.00

###

pIC50 listing for selected compounds.
# TESTED SYSTEM: KAT-8 (Homo sapiens (Human))
# Sequence (Q9H7Z6 other isoform, or with tags, fused parts or gaps): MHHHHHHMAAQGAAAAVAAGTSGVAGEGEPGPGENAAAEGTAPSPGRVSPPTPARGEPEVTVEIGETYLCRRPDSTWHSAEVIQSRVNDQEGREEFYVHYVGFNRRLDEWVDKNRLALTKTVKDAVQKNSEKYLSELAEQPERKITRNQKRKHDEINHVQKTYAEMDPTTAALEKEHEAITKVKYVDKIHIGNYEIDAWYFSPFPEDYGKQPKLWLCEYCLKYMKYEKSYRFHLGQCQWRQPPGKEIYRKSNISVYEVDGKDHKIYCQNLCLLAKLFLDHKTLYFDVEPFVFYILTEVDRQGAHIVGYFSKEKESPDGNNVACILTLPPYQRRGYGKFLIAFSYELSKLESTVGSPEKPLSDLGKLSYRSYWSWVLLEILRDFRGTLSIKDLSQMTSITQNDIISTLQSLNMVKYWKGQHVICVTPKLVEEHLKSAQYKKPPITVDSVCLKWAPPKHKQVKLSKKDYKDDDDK
# EXPERIMENTAL PROTOCOL: KAT-8 biochemical inhibition assay (SAMDI mass spectrometry)
# Protocol: KAT-8. Enzyme assay buffer was 50 mM Tris pH 8.0, 0.002% Tween20, 0.005% bovine skin gelatin, and 1 mM dithiothreitol (DTT). For determination of IC50 values, compounds were serially diluted with 2% (v/v) DMSO in the final reaction, pre-incubating each dilution of each compound with 40 μL of assay buffer containing KAT-8 enzyme (12.5 nM final concentration). 10 μL of assay buffer containing 1 μM peptide substrate and 5 μM acetyl coenzyme A (final concentrations) was added. […]
pIC50: −log10 of the molar value.

Solved entries (count: 5):
### Prompt # input compound: COc1ccc(CN(C)C(=O)N2CC[C@H](CS(=O)(=O)NNC(=O)c3cc(-c4cn(C)cn4)cc(Cl)c3F)C2)cc1 ; wanted: its pIC50
### Response 4.30 to 5.00

### Prompt Given the entry Cn1cnc(-c2cc(Cl)c(F)c(C(=O)NNS(=O)(=O)CC3CCN(C(=O)NCCO)C3)c2)c1 (stereo not drawn) , report its measured pIC50.
### Response 4.30 to 5.00

### Prompt What value of pIC50 has been reported for the following compound? CC(=O)Nc1cccc(S(=O)(=O)NNC(=O)c2cc(-c3cn(C)cn3)cc(Cl)c2F)c1
### Response 4.30 to 5.00

### Prompt State the recorded pIC50 for this entry: Cn1cnc(-c2cc(Cl)c(F)c(C(=O)NNS(=O)(=O)C[C@@H]3CCC[C@@H](N)C3)c2)c1
### Response 4.30 to 5.00

### Prompt What measured pIC50 goes with Cc1nc(-c2cc(Cl)c(F)c(C(=O)NNS(=O)(=O)C3CCCCC3)c2)cn1C ?
### Response < 4.00

---
### Prompt What measured pIC50 goes with CCn1cc(-c2cc(Cl)c(F)c(C(=O)NNS(=O)(=O)C3CCCCC3)c2)nc1C ?
### Response < 4.00

### Prompt Look up pIC50: Cn1cnc(-c2cc(Cl)c(F)c(C(=O)NNS(=O)(=O)C[C@H]3CC[C@H](NC(=O)c4ccccn4)CC3)c2)c1
### Response 4.30 to 5.00

###

Here the recorded IC50 is given for each entry.
# TESTED SYSTEM: KAT-5 (Homo sapiens (Human))
# Sequence (Q92993 other isoform, or with tags, fused parts or gaps): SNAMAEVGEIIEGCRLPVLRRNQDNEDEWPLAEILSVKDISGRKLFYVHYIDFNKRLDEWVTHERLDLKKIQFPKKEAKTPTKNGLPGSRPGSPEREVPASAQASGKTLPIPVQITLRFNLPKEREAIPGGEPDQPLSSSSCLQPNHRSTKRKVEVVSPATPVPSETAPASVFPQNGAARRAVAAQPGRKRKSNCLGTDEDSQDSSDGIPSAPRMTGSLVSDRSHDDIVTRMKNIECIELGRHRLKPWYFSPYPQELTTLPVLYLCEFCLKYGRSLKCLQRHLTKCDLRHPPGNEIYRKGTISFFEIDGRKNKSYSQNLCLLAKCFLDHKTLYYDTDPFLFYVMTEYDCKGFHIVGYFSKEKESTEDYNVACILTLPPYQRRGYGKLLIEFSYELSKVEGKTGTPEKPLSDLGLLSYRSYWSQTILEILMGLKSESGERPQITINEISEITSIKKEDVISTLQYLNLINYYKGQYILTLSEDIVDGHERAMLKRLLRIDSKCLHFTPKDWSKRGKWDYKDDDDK
# EXPERIMENTAL PROTOCOL: KAT-5 biochemical inhibition assay (SAMDI mass spectrometry)

### Prompt Quick one: IC50 of O=C(NNS(=O)(=O)c1cccc(O)c1)c1cc(-c2ccccn2)cc(Cl)c1F [Compound I-481] ?
### Response < 10 µM

### Prompt Please report the recorded IC50 for Cn1cnc(-c2cc(Cl)c(F)c(C(=O)NNS(=O)(=O)c3cn(C)cn3)c2)c1 [Compound I-237] .
### Response 10 to 50 µM

### Prompt Param item = COCCN(Cc1ccc(OC)cc1)C(=O)N1CCCC(CS(=O)(=O)NNC(=O)c2cc(-c3cn(C)cn3)cc(Cl)c2F)C1 (stereo not shown) [Compound I-216] ; retrieve measured IC50.
### Response < 10 µM

### Prompt What value of measured IC50 is listed for Cn1cnc(-c2cc(Cl)c(F)c(C(=O)NNS(=O)(=O)Cc3cccnc3)c2)c1 [Compound I-282] ?
### Response < 10 µM

###

# TESTED SYSTEM: KAT-6A (Homo sapiens (Human), UniProt Q92794)
# Sequence (Q92794 other isoform, or with tags, fused parts or gaps): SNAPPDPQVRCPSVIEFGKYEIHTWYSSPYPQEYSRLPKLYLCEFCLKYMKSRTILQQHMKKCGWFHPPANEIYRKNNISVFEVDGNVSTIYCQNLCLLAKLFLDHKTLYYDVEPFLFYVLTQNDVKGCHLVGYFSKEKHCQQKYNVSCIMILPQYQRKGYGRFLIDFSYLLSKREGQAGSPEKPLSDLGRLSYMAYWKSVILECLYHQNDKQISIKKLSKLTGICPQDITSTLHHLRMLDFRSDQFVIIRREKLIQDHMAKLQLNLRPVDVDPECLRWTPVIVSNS
# EXPERIMENTAL PROTOCOL: KAT-6A biochemical inhibition assay (SAMDI mass spectrometry)
METRIC NAME: IC50

### Prompt Look up IC50: CCNC(=O)N[C@H]1CC[C@H](C(C)S(=O)(=O)NNC(=O)c2cc(-c3cn(C)cn3)cc(Cl)c2F)CC1 (stereo partly drawn) [Compound I-455]
### Response 10 to 50 µM

New cases:
### Prompt Record request: IC50 value, item Cn1cnc(-c2cc(Cl)c(F)c(C(=O)NNS(=O)(=O)C[C@H]3CCC[C@H](N)C3)c2)c1 [Compound I-349]
### Response 10 to 50 µM

### Prompt Using the record for CN1CCN([C@H]2CC[C@@H](CS(=O)(=O)NNC(=O)c3cc(-c4cn(C)cn4)cc(Cl)c3F)CC2)C1=O [Compound I-310] , report its IC50.
### Response < 10 µM

### Prompt Name the reported IC50 value associated with the compound Cc1cc(-c2cn(C)cn2)cc(C(=O)NNS(=O)(=O)CC2CCCNC2)c1F (stereo not drawn) [Compound I-133]
### Response > 100 µM

### Prompt Field request: IC50 | item: Cn1cnc(-c2cc(Cl)c(F)c(C(=O)NNS(=O)(=O)C[C@H]3CC[C@H](NC(=O)c4cccnc4)CC3)c2)c1 [Compound I-241]
### Response < 10 µM

### Prompt Query: IC50; subject: CN(C)C(=O)NC1CCC(CS(=O)(=O)NNC(=O)c2cc(-c3cn(C)cn3)cc(Cl)c2F)C1 (stereo not drawn) [Compound I-336]
### Response < 10 µM

### Prompt May I ask what IC50 has been recorded for Cc1cc(-c2cnn(C(C)C)c2)cc(C(=O)NNS(=O)(=O)C2CCCCC2)c1F [Compound I-155] ?
### Response > 100 µM

### Prompt // returns reported IC50 for input COCC(=O)N1CCC(CS(=O)(=O)NNC(=O)c2cc(-c3cn(C)cn3)cc(Cl)c2F)C1 (stereo not drawn) [Compound I-62]
### Response 10 to 50 µM

###

Parameter: pIC50. Scope: all listed entries.
# TESTED SYSTEM: KAT-6A (Homo sapiens (Human), UniProt Q92794)
# EXPERIMENTAL PROTOCOL: KAT-6A biochemical inhibition assay (SAMDI mass spectrometry)
pIC50: −log10 of the molar value.

### Prompt Any idea what pIC50 was measured for COCCNC(=O)N1CCCC(CS(=O)(=O)NNC(=O)c2cc(-c3cn(C)cn3)cc(Cl)c2F)C1 (stereo not drawn) ?
### Response > 5.00

### Prompt For the compound shown here, CN(C(=O)OC(C)(C)C)C1CCC(CS(=O)(=O)NNC(=O)c2cc(-c3cn(C)cn3)cc(Cl)c2F)CC1 (stereo not drawn) , give the reported pIC50.
### Response > 5.00

### Prompt Suppose we examine the compound COc1cnc(Cl)c(S(=O)(=O)NNC(=O)c2cc(-c3cn(C)cn3)cc(Cl)c2F)c1 ; what pIC50 value has been reported?
### Response > 5.00

### Prompt Reported pIC50 for Cc1cc(-c2cn(C)cn2)cc(C(=O)NNS(=O)(=O)Cc2ccccc2)c1F : what is it?
### Response 4.30 to 5.00

### Prompt Which pIC50 is listed for CC(=O)Nc1ccccc1S(=O)(=O)NNC(=O)c1cc(-c2cn(C)cn2)cc(Cl)c1F ?
### Response > 5.00

### Prompt So what does the record say about pIC50 for Cn1cnc(-c2cc(Cl)c(F)c(C(=O)NNS(=O)(=O)CC3(C)CCOCC3)c2)c1 ?
### Response 4.30 to 5.00

### Prompt So what's the measured pIC50 for this one? COCCn1cnc(-c2cc(C)c(F)c(C(=O)NNS(=O)(=O)CC3CCCN(C(=O)OC(C)(C)C)C3)c2)c1 (stereo not drawn)
### Response 4.00 to 4.30

### Prompt Data request, read-out pIC50, for Cc1ncc(-c2cc(Cl)c(F)c(C(=O)NNS(=O)(=O)CC3CCOCC3)c2)[nH]1
### Response > 5.00

### Prompt // pIC50 lookup, key: CC(C)Oc1ccc(S(=O)(=O)NNC(=O)c2cc(-c3cn(C)cn3)cc(Cl)c2F)c(F)c1
### Response > 5.00

### Prompt Form field: reported pIC50 of Cc1cc(-c2cn(C)cn2)cc(C(=O)NNS(=O)(=O)C2CCOCC2)c1F
### Response 4.30 to 5.00

### Prompt Data request, read-out pIC50, for CCNC(=O)N[C@@H]1CCC[C@H](CS(=O)(=O)NNC(=O)c2cc(-c3cn(C)cn3)cc(Cl)c2F)C1
### Response > 5.00

### Prompt Return reported pIC50; argument: C[C@@H]1CN(C(=O)OC(C)(C)C)C[C@H]1CS(=O)(=O)NNC(=O)c1cc(-c2cn(C)cn2)cc(Cl)c1F
### Response 4.30 to 5.00
